Consider the following sequences; for each one, report its phosphorylation enrichment.
system: EPHB2 (UniProt P29323)
Sequence (P29323 whole entry, looked up): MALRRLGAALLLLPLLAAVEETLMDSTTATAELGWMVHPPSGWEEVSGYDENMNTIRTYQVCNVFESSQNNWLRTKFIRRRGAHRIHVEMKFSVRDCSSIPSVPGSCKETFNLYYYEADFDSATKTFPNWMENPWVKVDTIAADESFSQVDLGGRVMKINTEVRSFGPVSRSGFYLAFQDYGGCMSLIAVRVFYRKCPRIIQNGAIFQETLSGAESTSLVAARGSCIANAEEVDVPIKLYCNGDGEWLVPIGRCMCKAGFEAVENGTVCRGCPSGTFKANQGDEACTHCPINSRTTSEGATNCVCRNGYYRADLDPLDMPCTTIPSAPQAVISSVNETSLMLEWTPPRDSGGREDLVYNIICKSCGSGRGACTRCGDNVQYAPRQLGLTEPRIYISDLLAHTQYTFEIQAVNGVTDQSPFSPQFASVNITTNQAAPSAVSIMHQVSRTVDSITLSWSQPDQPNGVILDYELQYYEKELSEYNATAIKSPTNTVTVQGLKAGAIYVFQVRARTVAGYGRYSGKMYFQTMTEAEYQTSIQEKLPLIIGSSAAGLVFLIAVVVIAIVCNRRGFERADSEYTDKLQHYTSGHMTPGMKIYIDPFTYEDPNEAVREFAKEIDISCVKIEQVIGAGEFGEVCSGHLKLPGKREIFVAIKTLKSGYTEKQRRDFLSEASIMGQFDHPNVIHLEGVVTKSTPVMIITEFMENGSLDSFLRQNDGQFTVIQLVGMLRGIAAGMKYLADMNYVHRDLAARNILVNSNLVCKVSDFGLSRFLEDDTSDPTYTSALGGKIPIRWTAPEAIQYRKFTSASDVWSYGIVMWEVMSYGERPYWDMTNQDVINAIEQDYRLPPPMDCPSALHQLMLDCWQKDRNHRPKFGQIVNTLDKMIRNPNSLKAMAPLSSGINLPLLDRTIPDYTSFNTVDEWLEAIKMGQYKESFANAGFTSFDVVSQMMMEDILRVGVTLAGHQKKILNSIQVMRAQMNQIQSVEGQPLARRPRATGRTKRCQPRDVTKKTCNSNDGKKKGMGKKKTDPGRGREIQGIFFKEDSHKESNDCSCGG
protocol description: phosphorylation enrichment, bacterial display (enrichment ratio); higher = better substrate or ligand; peptides without Tyr show the background;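 note: 11-residue human phosphosite peptides and single-mutation variants displayed on the E. coli surface, counted by deep sequencing, each peptide's frequency after selection divided by its frequency in the unselected input library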;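 note: frequency after pTyr selection over input frequency; kinase dosed for 20-30% of maximal phosphorylation in three min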

phosphorylation enrichment for LVKDPYVMFPQ [PLEKHG2_Y489_P484L] is 0.608

Entry FTRNFYVRAVL [CYBA_Y88_YF] — recorded phosphorylation enrichment = 0.713

Documented phosphorylation enrichment of GCVSKYSGVFS [TUBGCP6_Y1624] : 0.458

Measured phosphorylation enrichment of QEMMEYRHQIQ [DES_Y324] : 0.833

Entry under test: HNLYSYPTKHE [MYO3A_Y1396] . Its phosphorylation enrichment was 16

Consider ELSDGYWVVSN [TPP1_Y459_A454E] . Its measured phosphorylation enrichment is 0.664

For this sequence ( RRIEKYVDQGK [IRAK3_Y61_H57R] ), measured phosphorylation enrichment is 0.322

So for NHFKIYNPCAE [PTEN_Y68_L70P_YF] , the logged phosphorylation enrichment turned out to be 0.518

Sure, the documented phosphorylation enrichment for KELANYFKLHH [AK7_Y390_YF] is 0.537

Recorded result, IYLADYRIMEG [ALOX12B_Y318] , phosphorylation enrichment: 1.07

Consider MHRRQYELLGG [GNAS_Y391_L388R] . Its measured phosphorylation enrichment is 0.426

get_value(item= GCKNHYDKDKP [THAP1_Y14_R13H] , readout=phosphorylation enrichment) returns 0.521

Entry under test: GVIRHSVVCST [BTK_Y334_Y334S] . Its phosphorylation enrichment was 0.456

Input TLKDVYDDGKF [RPS6KA3_Y483_YF] . Output phosphorylation enrichment: 0.513

According to the records, this sequence IGKAGYTDKMV [ENO1_Y236_V240M] displays phosphorylation enrichment of 0.352

# phosphorylation enrichment of PLQKIYNFNVL [SLC4A1_Y553_T552I_YF] = 0.84

The reported value for DERQPYAHMNG [IGF1R_Y1346] in terms of phosphorylation enrichment is 0.362

Measured phosphorylation enrichment of FCRIMYDIFPF [INTS13_Y67_YF] : 2.61

* * *

Consider the following sequences; for each one, report its phosphorylation enrichment.
system: Hck (UniProt P08631)
Sequence (P08631 whole entry, looked up): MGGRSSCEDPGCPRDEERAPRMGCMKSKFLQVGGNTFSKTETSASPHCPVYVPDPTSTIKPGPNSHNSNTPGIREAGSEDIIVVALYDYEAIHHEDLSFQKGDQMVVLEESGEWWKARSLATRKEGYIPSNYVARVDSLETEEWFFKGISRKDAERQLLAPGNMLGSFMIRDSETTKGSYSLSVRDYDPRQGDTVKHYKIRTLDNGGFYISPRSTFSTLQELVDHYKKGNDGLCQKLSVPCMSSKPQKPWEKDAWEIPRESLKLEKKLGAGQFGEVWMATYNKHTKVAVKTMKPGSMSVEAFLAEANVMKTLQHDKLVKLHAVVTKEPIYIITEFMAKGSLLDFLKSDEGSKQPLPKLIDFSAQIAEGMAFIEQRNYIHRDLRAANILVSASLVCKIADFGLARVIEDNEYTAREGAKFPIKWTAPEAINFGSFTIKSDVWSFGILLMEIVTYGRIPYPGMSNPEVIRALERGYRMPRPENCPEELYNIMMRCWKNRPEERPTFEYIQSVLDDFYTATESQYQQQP
protocol description: phosphorylation enrichment, bacterial display (enrichment ratio); higher = better substrate or ligand; peptides without Tyr show the background
Number only, please.

Form field phosphorylation enrichment, entry GIATGYLVLKE [DNMT3B_Y588] : 0.511

For reference, reported phosphorylation enrichment for YRGYSYDDIPD [TMEM230_Y112] stands at 0.51

Short answer for SGDDGYAKDAQ [TENM4_Y1530_K1535Q] : phosphorylation enrichment was 0.493

Reported phosphorylation enrichment of KELAPYDENRF [RPS19_Y48_W52R] : 0.512

The reported phosphorylation enrichment of the sequence DDSNPYINVKL [MTHFD1_Y52_L51P] was 0.606

Record ERIEFYELNKK [PMM2_Y145_D148N] , field phosphorylation enrichment: 0.486

Looking up NRLTDYFELLL [BBS10_Y536_P539L_YF] , I found its phosphorylation enrichment recorded as 0.509

Record VNLVLHLSIAK [FBXO15_Y496_Y496H] . Reported phosphorylation enrichment: 0.588

In plain terms, SIKDKYVTALF [KCNH2_Y611_YF] has a documented phosphorylation enrichment of 0.498

For record NFFDTYIKTCL [IQGAP2_Y1445_YF] the listed phosphorylation enrichment is 0.587

phosphorylation enrichment recorded for this sequence, QAKRKYQEASK [FES_Y156] , is 0.489

* * *

system: Jak2 (UniProt O60674)
Sequence (O60674 whole entry, looked up): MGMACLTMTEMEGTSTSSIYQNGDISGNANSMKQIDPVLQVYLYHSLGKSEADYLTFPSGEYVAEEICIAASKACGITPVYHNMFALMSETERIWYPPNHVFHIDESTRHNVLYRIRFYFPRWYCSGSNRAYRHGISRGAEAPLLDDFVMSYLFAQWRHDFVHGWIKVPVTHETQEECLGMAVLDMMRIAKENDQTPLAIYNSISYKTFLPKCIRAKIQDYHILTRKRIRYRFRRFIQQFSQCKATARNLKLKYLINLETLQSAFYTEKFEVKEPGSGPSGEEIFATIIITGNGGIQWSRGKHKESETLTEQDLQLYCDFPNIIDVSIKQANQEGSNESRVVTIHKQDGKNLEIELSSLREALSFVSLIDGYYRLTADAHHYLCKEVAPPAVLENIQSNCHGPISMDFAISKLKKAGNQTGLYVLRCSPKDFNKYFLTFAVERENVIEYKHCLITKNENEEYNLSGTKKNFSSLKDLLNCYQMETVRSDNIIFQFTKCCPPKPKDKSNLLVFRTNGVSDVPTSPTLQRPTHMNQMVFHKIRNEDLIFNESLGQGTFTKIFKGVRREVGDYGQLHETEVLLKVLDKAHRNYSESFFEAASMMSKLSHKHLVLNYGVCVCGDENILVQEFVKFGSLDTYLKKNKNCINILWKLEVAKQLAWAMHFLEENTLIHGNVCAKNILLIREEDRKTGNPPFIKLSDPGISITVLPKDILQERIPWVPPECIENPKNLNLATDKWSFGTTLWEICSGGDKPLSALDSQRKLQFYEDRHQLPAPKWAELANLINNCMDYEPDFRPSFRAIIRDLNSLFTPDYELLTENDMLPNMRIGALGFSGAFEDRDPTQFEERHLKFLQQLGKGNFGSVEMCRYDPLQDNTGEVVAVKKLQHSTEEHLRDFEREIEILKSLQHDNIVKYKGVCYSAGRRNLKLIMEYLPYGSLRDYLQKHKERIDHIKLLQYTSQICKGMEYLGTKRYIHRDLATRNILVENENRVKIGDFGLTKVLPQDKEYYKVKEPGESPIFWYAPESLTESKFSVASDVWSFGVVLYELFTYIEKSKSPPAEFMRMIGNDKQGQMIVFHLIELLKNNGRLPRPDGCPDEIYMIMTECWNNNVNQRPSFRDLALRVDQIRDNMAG
protocol description: phosphorylation enrichment, bacterial display (enrichment ratio); higher = better substrate or ligand; peptides without Tyr show the background
Tick Fulfilled if phosphorylation enrichment is 0.8 or greater. Tick Not fulfilled if phosphorylation enrichment is less than 0.8.

Given GDEVEYMLVSF [GCLC_Y53] , state whether its phosphorylation enrichment is at least 0.8.
Fulfilled

Quick check: does FSALDYKIFYY [WDPCP_Y210_L205F] have phosphorylation enrichment greater than or equal to 0.8?
Fulfilled

Check if phosphorylation enrichment >= 0.8 (inclusive). Item: VVEFGYEFFAK [PPP1CB_Y254_D252Y_YF]
Fulfilled

Check this sequence for phosphorylation enrichment at or above 0.8: PSGPMYRGAVP [ASAH1_Y43_T42M]
Not fulfilled

I'd appreciate it if you could say whether EVVGKYSVHNA [MLH1_Y183_R182K] has phosphorylation enrichment at least equal to 0.8.
Not fulfilled

Decide: is the reported value of phosphorylation enrichment for KKRRSYGNSSD [SELENOK_Y52] equal to or greater than 0.8?
Not fulfilled

Is the recorded value of phosphorylation enrichment equal to or greater than 0.8 for this sequence? HLRAGYIIPLQ [GAA_Y822]
Not fulfilled

Entry FALAEYTEVKT [ALDH1A3_Y497_YF] : is its phosphorylation enrichment no less than 0.8?
Not fulfilled

Identify whether the reported phosphorylation enrichment of the following sequence is 0.8 or greater: FSDPDYLAAVD [GLB1_Y154_S149F]
Fulfilled

* * *

Test system: AncSZ
protocol description: phosphorylation enrichment, bacterial display (enrichment ratio); higher = better substrate or ligand; peptides without Tyr show the background
Assignment: determine reported phosphorylation enrichment for the given sequences.
# print the numeric value only

Value (phosphorylation enrichment, AncSZ) for record NSNSDYVDVLP [SH2D1B_Y127] = 2.46

Hey, AncSZ data for VDLSKCITTIA [FAS_Y232_Y232C] : phosphorylation enrichment came out at 0.975

The measured phosphorylation enrichment that VGSEDYGRDLT [SPTAN1_Y1792] showed for AncSZ is 1.1

GET /values?item= RILDVYIFLGP [GAA_Y340_G335R] &system= AncSZ returns phosphorylation enrichment: 1

Form: item GRVYVYHLSEQ [ITGAE_Y551_R552H] ; test system AncSZ; phosphorylation enrichment: 1.03

Test item TLDTDYQMTKR [ADA_Y308] ; AncSZ; reported phosphorylation enrichment was 0.77

Entry AFSTVYKGLWI [EGFR_Y727_G724S] under AncSZ had phosphorylation enrichment of 1.01

DFSLKYATDIP [APC_Y1183_YF] tested on AncSZ gave phosphorylation enrichment: 0.914

AVHPGYGFLSE [PCCA_Y143] tested on AncSZ gave phosphorylation enrichment: 0.663

AncSZ phosphorylation enrichment of FIGCIYLFLTK [GARS1_Y414_R412C_YF] is 0.803

Tested on AncSZ, the item DGTGHYLGNAC [GATA5_Y208_C210G] showed phosphorylation enrichment equal to 0.624

# value of phosphorylation enrichment, AncSZ, item GPRSLYNGLVA [UCP2_Y79] = 0.488

AncSZ data for DYSLKYATDIP [APC_Y1183] ; its phosphorylation enrichment: 1.35

Note to self: phosphorylation enrichment of LFSINYLHFGD [KDM4C_Y201_E206D_YF] with AncSZ was 1.32

* * *

system: FGFR3 (UniProt P22607)
Sequence (P22607 whole entry, looked up): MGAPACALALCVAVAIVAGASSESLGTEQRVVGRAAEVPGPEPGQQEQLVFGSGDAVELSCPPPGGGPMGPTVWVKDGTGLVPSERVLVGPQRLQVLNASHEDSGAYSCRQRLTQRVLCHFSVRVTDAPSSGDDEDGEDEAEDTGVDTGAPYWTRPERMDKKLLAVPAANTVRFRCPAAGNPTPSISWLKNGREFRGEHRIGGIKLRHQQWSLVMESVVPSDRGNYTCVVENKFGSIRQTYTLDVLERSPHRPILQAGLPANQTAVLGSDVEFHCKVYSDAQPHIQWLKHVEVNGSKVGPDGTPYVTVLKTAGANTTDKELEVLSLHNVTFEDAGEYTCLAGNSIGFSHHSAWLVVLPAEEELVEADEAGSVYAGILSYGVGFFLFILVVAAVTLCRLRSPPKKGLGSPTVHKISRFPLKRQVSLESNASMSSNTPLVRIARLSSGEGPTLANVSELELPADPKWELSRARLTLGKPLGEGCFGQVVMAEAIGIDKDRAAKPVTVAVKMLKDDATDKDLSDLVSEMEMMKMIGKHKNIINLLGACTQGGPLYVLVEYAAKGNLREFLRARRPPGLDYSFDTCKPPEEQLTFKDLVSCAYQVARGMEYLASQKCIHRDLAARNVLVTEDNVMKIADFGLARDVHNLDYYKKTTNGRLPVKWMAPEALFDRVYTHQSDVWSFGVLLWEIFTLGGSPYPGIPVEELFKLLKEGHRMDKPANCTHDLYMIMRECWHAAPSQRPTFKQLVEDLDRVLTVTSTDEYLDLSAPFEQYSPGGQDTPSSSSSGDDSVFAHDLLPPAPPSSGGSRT
protocol description: phosphorylation enrichment, bacterial display (enrichment ratio); higher = better substrate or ligand; peptides without Tyr show the background
measured attribute: phosphorylation enrichment
Just the number, please.

GET /values?item= MKKKTYAMGGG [GAN_Y424_I423T] &system= FGFR3 (UniProt P22607) returns phosphorylation enrichment: 0.531

The recorded phosphorylation enrichment with FGFR3 (UniProt P22607) for WEPFGYAVTRC [PTPRT_Y412] was 0.707

Entry SGGMDYGMVGG [TNRC6B_Y1382] , tested on FGFR3 (UniProt P22607), has a reported phosphorylation enrichment of 0.494

Measured on FGFR3 (UniProt P22607), IYLADYRIMEG [ALOX12B_Y318] has a documented phosphorylation enrichment of 2.46

Known value: FGFR3 (UniProt P22607) phosphorylation enrichment of the sequence SLIDGYFRLTE [JAK2_Y372_A377E_YF] equals 0.715

Bench note, FGFR3 (UniProt P22607): entry NIEPIYLNMLL [ATR_Y317_V316I] , its phosphorylation enrichment = 7.79

Lab note: sequence MHRRQYELLGG [GNAS_Y391_L388R] tested on FGFR3 (UniProt P22607); recorded phosphorylation enrichment was 0.425

Lab entry: FGFR3 (UniProt P22607) assay, sequence IMAYFYMCDRA [CASD1_Y382] , phosphorylation enrichment = 1.23

Readout phosphorylation enrichment for VQVAYYTVMMN [SPATA17_Y84_M86V] , test system FGFR3 (UniProt P22607), was 4.41

Entry VVQGIYGYHHH [UFSP2_Y285_Y290H] ; assay system FGFR3 (UniProt P22607); phosphorylation enrichment recorded at 0.488

Value (phosphorylation enrichment, FGFR3 (UniProt P22607)) for record ETKGDYEKILV [ANXA1_Y335] = 0.682

Given the sequence DAPVVYLGSFG [PRAG1_Y132_R137G] and test system FGFR3 (UniProt P22607), the measured phosphorylation enrichment is 0.623

Entry EIKLAYRRRPP [GRIN2B_Y1109_E1106K] ; assay system FGFR3 (UniProt P22607); phosphorylation enrichment recorded at 0.584

// phosphorylation enrichment (FGFR3 (UniProt P22607)) for VNFGAYINDFK [GLB1_Y488_YF] = 0.621

Measured phosphorylation enrichment for this entry FGSGNYNVFGN [HNRNPA2B1_Y300_D302V_YF] on FGFR3 (UniProt P22607): 0.434

Entry RHPLDYLRQFP [NARS2_Y138_E137D_YF] under FGFR3 (UniProt P22607) had phosphorylation enrichment of 0.449

Form: item PESIMYWKFTT [NTRK3_Y744_R745W] ; test system FGFR3 (UniProt P22607); phosphorylation enrichment: 1.55

The observed phosphorylation enrichment for PYIDSYEKDVA [PGM1_Y521_L516P] when tested with FGFR3 (UniProt P22607) stands at 1.08

Bench note, FGFR3 (UniProt P22607): entry ALAHKYPGGGG [HBB_Y146_H147P] , its phosphorylation enrichment = 0.662

Bench note, FGFR3 (UniProt P22607): IDDNEYAFLKA [HNF4A_Y286_YF] , phosphorylation enrichment reads 1.43

Kindly note: FGFR3 (UniProt P22607), SEEVNYATLTF [CLEC12B_Y7_T6N] , phosphorylation enrichment value reported: 1.4

Reported FGFR3 (UniProt P22607) phosphorylation enrichment for item GASWRYGSGVS [NEU1_Y242] was 0.617

Let me check: LARHMYDKEFF [MET_Y1230_D1228H_YF] , system FGFR3 (UniProt P22607), measured phosphorylation enrichment is 0.55

The value of phosphorylation enrichment recorded for PMFTKYGNSLL [RPGRIP1L_Y196] when tested on FGFR3 (UniProt P22607) reads 0.912

FGFR3 (UniProt P22607) phosphorylation enrichment of ADYPDYKYRPR [SOX11_Y116] is 0.613

For EEEPVYEAEPE [HCLS1_Y360] on FGFR3 (UniProt P22607), measured phosphorylation enrichment was 0.84

Noted phosphorylation enrichment for VRQQVYKKVEE [HADHA_Y283] , tested on FGFR3 (UniProt P22607): 0.536

phosphorylation enrichment on FGFR3 (UniProt P22607) for ASPALYRLDLD [TRIL_Y352] is 0.688

phosphorylation enrichment on FGFR3 (UniProt P22607) for SGADSYEMEED [EGFR_Y316_C311S] is 0.871

Observed phosphorylation enrichment, FGFR3 (UniProt P22607), TPGPNYRPGFN [USH2A_Y463_YF] : 0.646

phosphorylation enrichment value, target or system FGFR3 (UniProt P22607), for ISMAGYSIPEL [EDAR_Y406_T403M] : 0.54

Noted phosphorylation enrichment for YIRRDYEACKA [BBS4_Y48_K46R] , tested on FGFR3 (UniProt P22607): 0.578

Summary: LVPPRYARSEI [PKP2_Y194] , FGFR3 (UniProt P22607), phosphorylation enrichment = 0.941

phosphorylation enrichment of SADIAYNFRHG [PAH_Y166_F161S_YF] , assay on FGFR3 (UniProt P22607), is 0.469

// returns phosphorylation enrichment for CEHRGYLYLAI [TEK_Y897] with FGFR3 (UniProt P22607); value = 0.72

With FGFR3 (UniProt P22607) as the test system, IGEGTYGQVYK [CDK13_Y716] showed phosphorylation enrichment of 0.508

# PLLEYYRDIFT [CDAN1_Y713] with FGFR3 (UniProt P22607): phosphorylation enrichment is 5.58

Entry TGQEEYSAMRD [KRAS_Y64_A59T] , FGFR3 (UniProt P22607) data, phosphorylation enrichment value: 0.63

Entry KLFFHYDPKLC [INSR_Y457_N458D] : phosphorylation enrichment on FGFR3 (UniProt P22607) = 0.67

So the reported phosphorylation enrichment for GRTNIYNNKKD [SLC26A3_Y520_K521N] , on FGFR3 (UniProt P22607), turned out to be 0.349

Reported phosphorylation enrichment (FGFR3 (UniProt P22607)) for entry ADRSCYDLSCH [GARS1_Y467] is 0.586

The reported numbers originate from the supplement of paper PMC10065799.
